Data credit: patent US9695155B2

Tested on: giant foxtail
Assay: Test C postemergence
Format: in vivo, Setaria faberii
Conditions: 31 g ai/ha, postemergence; visual rating, scale 0 to 100 (0 no effect, 100 complete control), 13 to 15 days
Quick list: Foxtail, Giant plant response rating per entry.
In your answer, state the number alone without any accompanying words.

Check out these entries, answers already filled in.
1) FC(F)c1cnn(-c2c(Cl)cccc2Oc2ncc(Cl)cn2)c1 [Compound 192] = 5
2) Clc1cnc(Oc2ccccc2-n2cc(Br)nn2)nc1 [Compound 223] = 5

Now for the molecule whose Foxtail, Giant plant response rating we want.
Simply: N#Cc1cn(-c2c(C#N)cccc2Oc2ncc(Cl)cn2)nn1 [Compound 273] , giant foxtail, Foxtail, Giant plant response rating = 40

* * *

System: barnyardgrass
Test: Test A postemergence
Assay type: in vivo, Echinochloa crus-galli
Details: 125 g ai/ha, 0 to 100 scale, 0 no effect, 100 complete control
Property Name: Plant response rating, Barnyardgrass

Check out these entries, answers already filled in.
1) NC(=S)c1cccc(Oc2ncc(Cl)cn2)c1-n1cc(Cl)cn1 [Compound 292] = 60
2) FCc1cccc(Oc2ncc(Br)cn2)c1-n1cc(I)cn1 [Compound 244] = 10

Simply: N#Cc1cnn(-c2c(Oc3ncc(F)cn3)cccc2C(F)F)c1 [Compound 240] , barnyardgrass, Plant response rating, Barnyardgrass = 90

Simply: FC(F)(F)Sc1cnn(-c2ccccc2Oc2ncc(Br)cn2)c1 [Compound 246] , barnyardgrass, Plant response rating, Barnyardgrass = 0

Simply: FCc1cccc(Oc2ncc(F)cn2)c1-n1cc(Cl)cn1 [Compound 249] , barnyardgrass, Plant response rating, Barnyardgrass = 60

Simply: Clc1cnc(Oc2cccc(-c3cnoc3)c2-n2cc(Br)cn2)nc1 [Compound 291] , barnyardgrass, Plant response rating, Barnyardgrass = 0

Simply: Cc1cn(-c2c(C#N)cccc2Oc2ncc(Cl)cn2)cn1 [Compound 260] , barnyardgrass, Plant response rating, Barnyardgrass = 0

* * *

System: yellow nutsedge
Assay: Test C postemergence
Format: in vivo, Cyperus esculentus
Conditions: 16 g ai/ha, postemergence; 0 is no effect, 100 is complete control
Quick list: Plant response rating (0 to 100), Nutsedge, Yellow per entry.
In your answer, state the number alone without any accompanying words.

1. FCc1cccc(Oc2ncc(F)cn2)c1-n1cc(I)cn1 = 0
2. FC(F)c1cccc(Oc2ncc(Br)cn2)c1-n1cc(C(F)(F)F)cn1 = 5
3. Clc1cnc(Oc2cccc(Cl)c2-n2cc(I)cn2)nc1 = 0

Simply: `FC(F)c1cnn(-c2c(Br)cccc2Oc2ncc(Cl)cn2)c1` , yellow nutsedge, Plant response rating (0 to 100), Nutsedge, Yellow = 5

* * *

Tested on: surinam grass
Assay: Test E preemergence
Type: in vivo, Brachiaria decumbens
Settings: 125 g ai/ha, scale 0 to 100, 0 no effect, 100 complete control
Property Name: Plant response rating, Surinam Grass
In your answer, state the number alone without any accompanying words.

Check out these entries, answers already filled in.
1) Cc1cnc(Oc2cccc(C#N)c2-n2cc(C(F)(F)F)cn2)nc1 [Compound 180] = 75
2) N#Cc1cnn(-c2c(C#N)cccc2Oc2ncc(Cl)cn2)c1 [Compound 200] = 100
3) N#Cc1cccc(Oc2ncc(Cl)cn2)c1-n1cc(Cl)cn1 [Compound 72] = 10

The recorded Plant response rating, Surinam Grass for N#Cc1cccc(Oc2ncc(Cl)cn2)c1-n1cc(Br)cn1 [Compound 52] is 10
